- targetSystem: T1, orthogonal hCD122 receptor (hoRb), hCD122 with H133D and Y134F (human, UniProt P14784 27-550); note: reference of the scale not given here
- T1 sequence: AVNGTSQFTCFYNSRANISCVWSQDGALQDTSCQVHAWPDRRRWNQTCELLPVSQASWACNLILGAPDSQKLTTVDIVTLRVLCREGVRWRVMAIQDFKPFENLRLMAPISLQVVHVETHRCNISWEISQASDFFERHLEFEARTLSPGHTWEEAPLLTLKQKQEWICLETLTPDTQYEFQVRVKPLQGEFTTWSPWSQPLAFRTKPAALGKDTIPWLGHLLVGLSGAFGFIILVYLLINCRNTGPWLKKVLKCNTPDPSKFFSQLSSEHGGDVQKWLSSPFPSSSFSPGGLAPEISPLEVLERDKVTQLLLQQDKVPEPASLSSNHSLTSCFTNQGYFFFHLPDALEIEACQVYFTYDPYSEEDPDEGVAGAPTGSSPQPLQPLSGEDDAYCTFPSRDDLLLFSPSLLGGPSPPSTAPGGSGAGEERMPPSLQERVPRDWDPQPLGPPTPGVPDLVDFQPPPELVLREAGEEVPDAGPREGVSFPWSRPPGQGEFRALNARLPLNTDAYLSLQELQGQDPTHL
- testMethodNotes: cell-based or functional assay
// map Relative Proliferation Fold Change NKL 1:10 onto a label; ranges A (below 1 fold), B (1 fold to below 2 fold), C (2 fold or more)

| binder | category |
| --- | --- |
| KQVLKA (ligand) APTSSSTKKTQLQLKQLLVLLKAILNGINNYKNPKLTRMLTFKFYMPKKATELKHLQCLEEELKPLEEVLNLAQSKNFHLRPRDLISNINVIVLELKGSETTFMCEYADETATIVEFLNRWITFCQSIISTLT | C |
| SQVLKF (ligand) APTSSSTKKTQLQLSQLLVLLKFILNGINNYKNPKLTRMLTFKFYMPKKATELKHLQCLEEELKPLEEVLNLAQSKNFHLRPRDLISNINVIVLELKGSETTFMCEYADETATIVEFLNRWITFCQSIISTLT | C |
| Q13W SQVLKA (ligand) APTSSSTKKTQLWLSQLLVLLKAILNGINNYKNPKLTRMLTFKFYMPKKATELKHLQCLEEELKPLEEVLNLAQSKNFHLRPRDLISNINVIVLELKGSETTFMCEYADETATIVEFLNRWITFCQSIISTLT | A |

Now take the following binder into account.
Query: Form field 'band' for M39L, SQVLKA (ligand) APTSSSTKKTQLQLSQLLVLLKAILNGINNYKNPKLTRLLTFKFYMPKKATELKHLQCLEEELKPLEEVLNLAQSKNFHLRPRDLISNINVIVLELKGSETTFMCEYADETATIVEFLNRWITFCQSIISTLT
Reply: C
